Attribute: inhibition at 0.1 µM
Target: rat adrenergic α1B receptor (Rattus norvegicus, UniProt P15823)
Construct: rat adrenergic α1B receptor obtained from Wistar Rat liver; from tissue; host or cells: Wistar rat liver
Sequence (P15823 1-515): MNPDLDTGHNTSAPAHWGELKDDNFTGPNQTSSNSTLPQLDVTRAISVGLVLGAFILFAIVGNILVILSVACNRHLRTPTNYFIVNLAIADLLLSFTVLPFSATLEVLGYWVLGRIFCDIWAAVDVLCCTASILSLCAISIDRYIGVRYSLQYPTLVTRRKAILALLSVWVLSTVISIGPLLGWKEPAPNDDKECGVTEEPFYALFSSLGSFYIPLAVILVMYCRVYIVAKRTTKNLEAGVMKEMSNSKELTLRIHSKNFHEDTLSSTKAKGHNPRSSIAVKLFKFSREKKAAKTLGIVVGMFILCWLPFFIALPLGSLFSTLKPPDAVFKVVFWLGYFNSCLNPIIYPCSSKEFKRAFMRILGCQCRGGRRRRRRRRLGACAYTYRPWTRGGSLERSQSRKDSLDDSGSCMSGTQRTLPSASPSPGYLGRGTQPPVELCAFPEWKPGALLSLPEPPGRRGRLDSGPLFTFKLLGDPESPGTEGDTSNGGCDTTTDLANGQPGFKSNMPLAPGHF
Experiment: Radioligand binding, adrenergic α1B ([3H]Prazosin)
Settings: read-out: Percentage inhibition of ligand binding, Adrenergic α1B (0.1 μM), compound at 0.1 μM; [3H]Prazosin; repeat datapoints each shown
Note: unit % is implicit; provide only the numeric part.

Examples with answers:
{"compound": "CN1CCc2c(c3cccc(Cl)c3n2CCc2ccccc2)C1 [compound 216]", "test system": "rat adrenergic α1B receptor (Rattus norvegicus, UniProt P15823)", "inhibition at 0.1 µM, %": 65}
{"compound": "C/C(=C\\n1c2c(c3cc(Cl)ccc31)CN(C)CC2)c1ccncc1 [compound 185]", "test system": "rat adrenergic α1B receptor (Rattus norvegicus, UniProt P15823)", "inhibition at 0.1 µM, %": 86}
{"compound": "C/C(=C\\n1c2c(c3cc(C)ccc31)CN(C)CC2)c1cn[nH]c1 [compound 115]", "test system": "rat adrenergic α1B receptor (Rattus norvegicus, UniProt P15823)", "inhibition at 0.1 µM, %": 19}
{"compound": "Cc1ccc2c(c1)c1c(n2C(C)(C)C(O)c2ccccc2)CCN(C)C1 (stereo not shown) [II-187]", "test system": "rat adrenergic α1B receptor (Rattus norvegicus, UniProt P15823)", "inhibition at 0.1 µM, %": 54}
{"compound": "C/C(=C\\n1c2c(c3cc(C)ccc31)C1CCCN1CC2)c1ccc(F)cc1 (stereo not shown) [194a]", "test system": "rat adrenergic α1B receptor (Rattus norvegicus, UniProt P15823)", "inhibition at 0.1 µM, %": 100}
{"compound": "CCC(O)(Cn1c2c(c3cc(Cl)ccc31)CN(C)CC2)c1ccc(F)cc1 (stereo not shown) [II-160]", "test system": "rat adrenergic α1B receptor (Rattus norvegicus, UniProt P15823)", "inhibition at 0.1 µM, %": 7}
{"compound": "Cc1ccc(CCn2c3c(c4cccnc42)CN2CCCC2C3)cn1 (stereo not shown) [II-234]", "test system": "rat adrenergic α1B receptor (Rattus norvegicus, UniProt P15823)", "inhibition at 0.1 µM, %": -8}
{"compound": "Cc1ccc2c(c1)c1c(n2CC(C)(O)c2cnccc2Cl)CCN(C)C1 (stereo not shown) [II-148]", "test system": "rat adrenergic α1B receptor (Rattus norvegicus, UniProt P15823)", "inhibition at 0.1 µM, %": 21}

Q) I would be grateful if you could share the reported inhibition at 0.1 µM for Cc1ccc(CCn2c3c(c4c(F)ccc(Cl)c42)CN(C)CC3)cn1 [II-253] .
A) 9

Q) Which inhibition at 0.1 µM value belongs to Cc1ccc2c(c1)c1c(n2CC(CC(=O)N(C)C)c2ccncc2)CCN(C)C1 (stereo not shown) [II-230] ?
A) -2

Q) Bench note: what inhibition at 0.1 µM did C/C(=C\n1c2c(c3cc(C)ccc31)CNCC2)c1ccncc1 [compound 103] show?
A) 49

Q) May I ask what inhibition at 0.1 µM has been recorded for C/C(=C\n1c2c(c3cc(C)ccc31)CN(C)CC2)c1cccc(F)c1 [compound 237] ?
A) 80

Q) Return reported inhibition at 0.1 µM; argument: COc1ccc(/C(C)=C/n2c3c(c4cc(Cl)ccc42)CCN(C)CC3)cc1F [compound 240]
A) 74
